# Test system: 22RV1 cells
# procedure_summary: Cell viability (AlamarBlue), 22RV1 prostate cancer cells
# Assay type: cell-based, human
# Parameters: key: Inactive: less than 50% inhibition at the highest concentration tested at 50 μM
# setup_conditions: 72 hours of treatment
reported_metric: EC50 (μM) in 22RV1 cells

Consider the following illustrative entries.
Which EC50 (μM) in 22RV1 cells is reported for this molecule? COC1CCC(C(=O)NC(=O)Nc2ccc(Oc3ccc(C(F)(F)F)cn3)c(C)c2)CC1 (centres unmarked) Inactive

// repeat for Cc1cc(NC(=O)NC(=O)C2CC(OCC3CC3)C2)ccc1Oc1nccs1 (centres unmarked) and report Inactive

Cc1cc(NC(=O)NC(=O)C2CCOCC2)ccc1Oc1ncc(Cl)cn1 , same question. Inactive

Another molecule to check: COC1CCC(C(=O)NC(=O)Nc2ccc(Oc3ccc(C(C)C)cn3)c(C)c2)CC1 (single isomer, unassigned) [Compound 34B] Inactive

Let's switch to this molecule now.
Entry COC1CCC(C(=O)NC(=O)Nc2ccc(Oc3ccc(Cl)cn3)cc2F)CC1 (centres unmarked) : reported EC50 (μM) in 22RV1 cells = ? Inactive
